- protocol: self-splicing fitness, log relative to wild type (ln ratio); higher = more splicing; Tetrahymena group I intron in knt gene, E. coli kanamycin selection, DiMSum; sequences stand for … in CUCUCU…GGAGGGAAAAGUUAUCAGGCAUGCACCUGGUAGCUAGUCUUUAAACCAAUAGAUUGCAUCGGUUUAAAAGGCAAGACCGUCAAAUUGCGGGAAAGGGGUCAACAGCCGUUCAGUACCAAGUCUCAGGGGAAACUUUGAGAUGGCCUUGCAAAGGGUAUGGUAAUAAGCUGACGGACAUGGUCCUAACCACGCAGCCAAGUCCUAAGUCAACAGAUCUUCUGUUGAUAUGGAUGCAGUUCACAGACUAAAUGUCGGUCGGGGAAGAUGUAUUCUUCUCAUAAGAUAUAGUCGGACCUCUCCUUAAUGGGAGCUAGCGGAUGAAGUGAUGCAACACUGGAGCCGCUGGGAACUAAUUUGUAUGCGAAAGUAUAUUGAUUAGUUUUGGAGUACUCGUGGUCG;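 also: selection with 25 µg/mL kanamycin versus none on LB agar overnight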
- experimental.conditions: 30 °C
The sequences listed here are annotated with their self-splicing fitness (ln).

sequence: UCAAAGCAAUAUUACGAUGA
self-splicing fitness (ln): -0.6
//
sequence: GUAGAGCAAUAUUACGGCGG
self-splicing fitness (ln): -1.86
//
sequence: GGGCAGCAAUAUUACGUAAG
self-splicing fitness (ln): -0.581
//
sequence: UCGUAGCAAUAUUACGCGGU
self-splicing fitness (ln): -2.32
//
sequence: AGACAGCAAUAUUACGGGAC
self-splicing fitness (ln): -2.87
//
sequence: GCAGAGCAAUAUUACGAGAU
self-splicing fitness (ln): -2.04
//
sequence: GACAAGCAAUAUUACGCCGA
self-splicing fitness (ln): -1.19
//
sequence: CUGUAGCAAUAUUACGCGUU
self-splicing fitness (ln): -4.19

====

The sequences listed here are annotated with their self-splicing fitness (ln).
- protocol: self-splicing fitness, log relative to wild type (ln ratio); higher = more splicing; Tetrahymena group I intron in knt gene, E. coli kanamycin selection, DiMSum; sequences stand for … in CUCUCU…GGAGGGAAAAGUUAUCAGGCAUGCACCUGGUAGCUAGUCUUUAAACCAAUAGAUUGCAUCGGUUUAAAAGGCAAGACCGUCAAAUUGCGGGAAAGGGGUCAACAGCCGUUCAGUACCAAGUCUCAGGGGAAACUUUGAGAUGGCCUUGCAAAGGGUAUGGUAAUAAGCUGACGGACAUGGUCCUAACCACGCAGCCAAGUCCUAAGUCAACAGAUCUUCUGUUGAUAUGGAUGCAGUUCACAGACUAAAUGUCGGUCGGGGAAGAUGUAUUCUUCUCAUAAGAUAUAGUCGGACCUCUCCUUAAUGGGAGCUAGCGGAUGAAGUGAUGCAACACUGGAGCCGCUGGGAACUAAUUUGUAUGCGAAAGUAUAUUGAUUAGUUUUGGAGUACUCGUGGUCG
- experimental.conditions: 30 °C

sequence: AGCCAGCAAUAUUACGUACC
self-splicing fitness (ln): -2.95
//
sequence: AUACAGCAAUAUUACGAUUU
self-splicing fitness (ln): -0.0463
//
sequence: GUUUAGCAAUAUUACGAUAC
self-splicing fitness (ln): -1.44
//
sequence: CACGAGCAAUAUUACGCAUA
self-splicing fitness (ln): -3.1
//
sequence: GUGCAGCAAUAUUACGCGUA
self-splicing fitness (ln): -1.62
//
sequence: ACGGAGCAAUAUUACGGUAU
self-splicing fitness (ln): -4.48
//
sequence: AAGGAGCAAUAUUACGUAUU
self-splicing fitness (ln): -2.95
//
sequence: CGUAAGCAAUAUUACGGCAG
self-splicing fitness (ln): -0.537
//
sequence: GGGUAGCAAUAUUACGAGAU
self-splicing fitness (ln): -2.43
//
sequence: CGUAAGCAAUAUUACGGUAU
self-splicing fitness (ln): -3.71
//
sequence: AUCGAGCAAUAUUACGGUCG
self-splicing fitness (ln): -2.73
//
sequence: GUGCAGCAAUAUUACGACUC
self-splicing fitness (ln): -0.543
//
sequence: UUGAAGCAAUAUUACGGGAC
self-splicing fitness (ln): -2.18
//
sequence: AACCAGCAAUAUUACGCAGU
self-splicing fitness (ln): -2.6
//
sequence: UGGUAGCAAUAUUACGAUCG
self-splicing fitness (ln): 0.32
//
sequence: AGCUAGCAAUAUUACGCGGC
self-splicing fitness (ln): -3.24

====

- protocol: self-splicing fitness, log relative to wild type (ln ratio); higher = more splicing; Tetrahymena group I intron in knt gene, E. coli kanamycin selection, DiMSum; sequences stand for … in CUCUCU…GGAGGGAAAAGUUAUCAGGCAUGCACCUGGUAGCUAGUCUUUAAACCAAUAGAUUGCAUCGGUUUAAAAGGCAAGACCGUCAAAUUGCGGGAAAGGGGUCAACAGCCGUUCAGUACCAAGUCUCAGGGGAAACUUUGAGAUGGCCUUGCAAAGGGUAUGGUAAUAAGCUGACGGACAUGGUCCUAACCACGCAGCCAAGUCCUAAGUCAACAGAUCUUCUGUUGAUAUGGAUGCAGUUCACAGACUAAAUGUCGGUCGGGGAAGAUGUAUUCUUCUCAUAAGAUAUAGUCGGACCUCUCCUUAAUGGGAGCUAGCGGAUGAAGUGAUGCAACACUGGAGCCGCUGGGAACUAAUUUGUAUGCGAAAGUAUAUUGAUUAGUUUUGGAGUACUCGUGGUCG
- experimental.conditions: 30 °C
Please note: Condition met applies when self-splicing fitness (ln) is -2 or greater, and Condition not met applies otherwise.

sequence: UUCCAGCAAUAUUACGAUCG
assigned.category: Condition not met
--
sequence: CUCUAGCAAUAUUACGACCU
assigned.category: Condition not met
--
sequence: CAGCAGCAAUAUUACGAUUG
assigned.category: Condition not met
--
sequence: GAAGAGCAAUAUUACGUACC
assigned.category: Condition met
--
sequence: GCUGAGCAAUAUUACGGGGG
assigned.category: Condition not met
--
sequence: AGGGAGCAAUAUUACGACCA
assigned.category: Condition met
--
sequence: UACUAGCAAUAUUACGAAUA
assigned.category: Condition met

====

- protocol: self-splicing fitness, log relative to wild type (ln ratio); higher = more splicing; Tetrahymena group I intron in knt gene, E. coli kanamycin selection, DiMSum; sequences stand for … in CUCUCU…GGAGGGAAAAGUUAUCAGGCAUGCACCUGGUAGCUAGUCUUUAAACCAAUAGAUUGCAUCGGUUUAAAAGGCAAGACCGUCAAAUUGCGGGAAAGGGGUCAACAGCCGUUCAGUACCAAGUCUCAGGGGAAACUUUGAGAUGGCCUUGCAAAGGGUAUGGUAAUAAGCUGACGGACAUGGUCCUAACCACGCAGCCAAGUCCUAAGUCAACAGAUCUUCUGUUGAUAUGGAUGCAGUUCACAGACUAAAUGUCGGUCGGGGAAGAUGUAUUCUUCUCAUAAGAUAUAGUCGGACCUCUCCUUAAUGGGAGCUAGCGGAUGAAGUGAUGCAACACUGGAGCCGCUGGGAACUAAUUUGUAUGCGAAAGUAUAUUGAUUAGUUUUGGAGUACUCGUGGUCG
- experimental.conditions: 30 °C

sequence: UGCUAGCAAUAUUACGGGUC
self-splicing fitness (ln): -2.99
//
sequence: UGCCAGCAAUAUUACGAAAA
self-splicing fitness (ln): -2
//
sequence: UUAUAGCAAUAUUACGCACU
self-splicing fitness (ln): -1.15
//
sequence: UAGCAGCAAUAUUACGGUUC
self-splicing fitness (ln): -3.12
//
sequence: GGCGAGCAAUAUUACGCCCA
self-splicing fitness (ln): -2.15
//
sequence: UAGAAGCAAUAUUACGUUCA
self-splicing fitness (ln): -0.483
//
sequence: AGGUAGCAAUAUUACGGCUG
self-splicing fitness (ln): -1.13
//
sequence: GUCGAGCAAUAUUACGGUGU
self-splicing fitness (ln): -1.98
//
sequence: AAUCAGCAAUAUUACGACCC
self-splicing fitness (ln): 0.168
//
sequence: GAAAAGCAAUAUUACGGAUG
self-splicing fitness (ln): -2.63
//
sequence: UAAAAGCAAUAUUACGGGCA
self-splicing fitness (ln): -0.521
//
sequence: UGGGAGCAAUAUUACGUUCA
self-splicing fitness (ln): -0.406
//
sequence: GGUGAGCAAUAUUACGUCGG
self-splicing fitness (ln): -2.16
//
sequence: UAAGAGCAAUAUUACGACAA
self-splicing fitness (ln): -3.57
//
sequence: CAUAAGCAAUAUUACGGUGC
self-splicing fitness (ln): -3.51
//
sequence: AUCGAGCAAUAUUACGAACA
self-splicing fitness (ln): -2.91

====

- protocol: self-splicing fitness, log relative to wild type (ln ratio); higher = more splicing; Tetrahymena group I intron in knt gene, E. coli kanamycin selection, DiMSum; sequences stand for … in CUCUCU…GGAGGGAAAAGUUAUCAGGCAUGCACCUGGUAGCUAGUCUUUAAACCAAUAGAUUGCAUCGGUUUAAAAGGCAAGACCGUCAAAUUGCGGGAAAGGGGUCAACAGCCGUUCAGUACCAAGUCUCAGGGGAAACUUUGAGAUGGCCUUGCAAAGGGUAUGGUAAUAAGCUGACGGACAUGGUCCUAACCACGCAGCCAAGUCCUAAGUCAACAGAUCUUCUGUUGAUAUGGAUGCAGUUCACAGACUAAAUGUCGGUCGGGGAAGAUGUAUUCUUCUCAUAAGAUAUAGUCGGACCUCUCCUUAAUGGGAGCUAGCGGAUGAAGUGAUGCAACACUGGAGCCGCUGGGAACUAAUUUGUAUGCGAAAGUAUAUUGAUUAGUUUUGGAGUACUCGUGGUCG
- experimental.conditions: 30 °C
Please note: YES applies when self-splicing fitness (ln) is -3 or greater, and NO applies otherwise.

sequence: UUACAGCAAUAUUACGGCUA
assigned.category: YES
//
sequence: UGUCAGCAAUAUUACGAUAU
assigned.category: YES
//
sequence: CCGGAGCAAUAUUACGCAGU
assigned.category: NO
//
sequence: AUACAGCAAUAUUACGAGUC
assigned.category: NO
//
sequence: ACGCAGCAAUAUUACGAUGC
assigned.category: NO
//
sequence: UGGAAGCAAUAUUACGAUUU
assigned.category: YES
//
sequence: ACAGAGCAAUAUUACGCUCG
assigned.category: YES
//
sequence: ACAAAGCAAUAUUACGAAUC
assigned.category: YES
//
sequence: CGAAAGCAAUAUUACGAAGA
assigned.category: YES
//
sequence: UACCAGCAAUAUUACGCGAU
assigned.category: YES
//
sequence: GUUUAGCAAUAUUACGGGAU
assigned.category: YES
//
sequence: AAAUAGCAAUAUUACGUAGU
assigned.category: NO
//
sequence: UCGUAGCAAUAUUACGCACU
assigned.category: YES
//
sequence: UGAAAGCAAUAUUACGAUCU
assigned.category: YES
//
sequence: UGAAAGCAAUAUUACGGCAU
assigned.category: YES
